Target: T1, AFP158/HLA-A*02:01 complex (human)
T1 construct: flowed over the chip in SPR; also called AFP158 pro
Assay: SPR, scFv captured, pMHC in flow;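 note: complex injected at several concentrations over crude scFv, association then running-buffer dissociation, KD estimated from kinetic on- and off-rate constants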
pKd: −log10 of the molar value.

| Binder | pKd |
| --- | --- |
| HP110Q (scFv, AS170036 VL1VH1 scFv mutein) scFv: QSALTQPRSVSGSPGQSVTISCAGTSSDVGSENYVSWYQQHPGKAPKLMIYQVNKRASGVPDRFSGSKSGNTASLTISGLQAEDEADYYCASYRSSDHNIVFGGGTKLTVLGGGGSGGGGSGGGGSEVQLVESGGGLVQPGGSLRLSCAASGFTFSSYAMSWVRQAPGKGLEWVSTINSGTGSPYYADSVKGRFTISRDNSKNTLYLQMNSLRAEDTAVYYCAKNFFDGSWFLGPQAMDYWGQGTLVTVSSHHHHHH | 6.52 |
| HS57M (scFv, AS170036 VL1VH1 scFv mutein; also called AS170036 VL1VH1-VHS57M) scFv: QSALTQPRSVSGSPGQSVTISCAGTSSDVGSENYVSWYQQHPGKAPKLMIYQVNKRASGVPDRFSGSKSGNTASLTISGLQAEDEADYYCASYRSSDHNIVFGGGTKLTVLGGGGSGGGGSGGGGSEVQLVESGGGLVQPGGSLRLSCAASGFTFSSYAMSWVRQAPGKGLEWVSTINSGTGMPYYADSVKGRFTISRDNSKNTLYLQMNSLRAEDTAVYYCAKNFFDGSWFLGPPAMDYWGQGTLVTVSSHHHHHH | 7.05 |
| HG56D (scFv, AS170036 VL1VH1 scFv mutein) scFv: QSALTQPRSVSGSPGQSVTISCAGTSSDVGSENYVSWYQQHPGKAPKLMIYQVNKRASGVPDRFSGSKSGNTASLTISGLQAEDEADYYCASYRSSDHNIVFGGGTKLTVLGGGGSGGGGSGGGGSEVQLVESGGGLVQPGGSLRLSCAASGFTFSSYAMSWVRQAPGKGLEWVSTINSGTDSPYYADSVKGRFTISRDNSKNTLYLQMNSLRAEDTAVYYCAKNFFDGSWFLGPPAMDYWGQGTLVTVSSHHHHHH | 6.64 |
